Tested on: Trypanosoma brucei rhodesiense, STIB 900 strain, trypomastigotes stage
assaySummary: In vitro anti-trypanosomal activity (growth inhibition)
Assay type: cell-based
testContext: Trypanosoma brucei; STIB 900 strain, trypomastigotes; average of two independent assays; read-out: IC50 T. b. rhod.
pIC50: −log10 of the molar value.
quantityMeasured: pIC50

# smilesNotation, observedResult
measured = [
    ("CC(C)(C)OC(=O)N(CCCCN(CCCNC(=O)Cc1c[nH]c2ccccc12)C(=O)OC(C)(C)C)CCCNC(=O)Cc1c[nH]c2ccccc12", 5.15),
    ("COc1ccc2[nH]cc(C(=O)C(=O)NCCCN(CCCCCCCCCCCCN(CCCNC(=O)C(=O)c3c[nH]c4ccc(OC)cc34)C(=O)OC(C)(C)C)C(=O)OC(C)(C)C)c2c1", 5.28),
    ("COc1ccc2[nH]cc(C(=O)C(=O)NCCCNCCCCCCCCCCCCNCCCNC(=O)C(=O)c3c[nH]c4ccc(OC)cc34)c2c1.O=C(O)C(F)(F)F.O=C(O)C(F)(F)F", 6.57),
]

###

Quick reference for IC50 among some compounds
Tested on: Trypanosoma brucei rhodesiense, STIB 900 strain, trypomastigotes stage
assaySummary: In vitro anti-trypanosomal activity (growth inhibition)
Format: cell-based
testContext: Trypanosoma brucei; STIB 900 strain, trypomastigotes; average of two independent assays; read-out: IC50 T. b. rhod.

# smilesNotation, unit, IC50
measured = [
    ("COc1ccc2c(C(=O)C(=O)NCCCNCCCCCCCCNCCCNC(=O)C(=O)c3c[nH]c4cc(OC)ccc34)c[nH]c2c1.O=C(O)C(F)(F)F.O=C(O)C(F)(F)F", "nM", 2200),
    ("COc1cccc2c(C(=O)C(=O)NCCCNCCCCCCCCNCCCNC(=O)C(=O)c3c[nH]c4c(OC)cccc34)c[nH]c12.O=C(O)C(F)(F)F.O=C(O)C(F)(F)F", "nM", 2100),
    ("O=C(NCCCNCCCCCCCCNCCCNC(=O)C(=O)c1c[nH]c2ccccc12)C(=O)c1c[nH]c2ccccc12.O=C(O)C(F)(F)F.O=C(O)C(F)(F)F", "nM", 2500),
    ("COc1ccc2[nH]cc(C(=O)C(=O)NCCCN(CCCCCCCCN(CCCNC(=O)C(=O)c3c[nH]c4ccc(OC)cc34)C(=O)OC(C)(C)C)C(=O)OC(C)(C)C)c2c1", "nM", 6200),
    ("O=C(NCCCNCCCCCCCCCCCCNCCCNC(=O)C(=O)c1c[nH]c2ccccc12)C(=O)c1c[nH]c2ccccc12.O=C(O)C(F)(F)F.O=C(O)C(F)(F)F", "nM", 270),
]

###

Tested on: L6 rat skeletal myoblast cell line
assaySummary: Cytotoxicity towards L6 cells
Type: cell-based
testContext: L6 rat skeletal myoblast cell line; average of two independent assays; read-out: IC50 L6
pIC50: −log10 of the molar value.
quantityMeasured: pIC50

# smilesNotation, quantityMeasured, relation, observedResult
measured = [
    ("COc1cccc2c(C(=O)C(=O)NCCCN(CCCCCCCCCCCCN(CCCNC(=O)C(=O)c3c[nH]c4c(OC)cccc34)C(=O)OC(C)(C)C)C(=O)OC(C)(C)C)c[nH]c12", "pIC50", "≤", 3.96),
    ("COc1ccc2[nH]cc(C(=O)C(=O)NCCCNCCCCCCCCCCCCNCCCNC(=O)C(=O)c3c[nH]c4ccc(OC)cc34)c2c1.O=C(O)C(F)(F)F.O=C(O)C(F)(F)F", "pIC50", "=", 4.77),
    ("O=C(NCCCNCCCCNCCCNC(=O)C(=O)c1c[nH]c2ccccc12)C(=O)c1c[nH]c2ccccc12.O=C(O)C(F)(F)F.O=C(O)C(F)(F)F", "pIC50", "=", 4.22),
]

###

# maps each entry to its IC50
Tested on: L6 rat skeletal myoblast cell line
assaySummary: Cytotoxicity towards L6 cells
Assay type: cell-based
testContext: L6 rat skeletal myoblast cell line; average of two independent assays; read-out: IC50 L6

# smilesNotation, IC50
measured = [
    ("COc1ccc2[nH]cc(C(=O)C(=O)NCCCN(CCCCCCCCN(CCCNC(=O)C(=O)c3c[nH]c4ccc(OC)cc34)C(=O)OC(C)(C)C)C(=O)OC(C)(C)C)c2c1", "≥ 120 µM"),
    ("COc1ccc2c(C(=O)C(=O)NCCCNCCCCCCCCCCCCNCCCNC(=O)C(=O)c3c[nH]c4cc(OC)ccc34)c[nH]c2c1.O=C(O)C(F)(F)F.O=C(O)C(F)(F)F", "6 µM"),
    ("O=C(Cc1c[nH]c2ccccc12)NCCCNCCCCCCCCCCCCNCCCNC(=O)Cc1c[nH]c2ccccc12.O=C(O)C(F)(F)F.O=C(O)C(F)(F)F", "19 µM"),
]

###

Test system: Plasmodium falciparum, NF54 strain, IEF stage
assaySummary: In vitro antimalarial activity, NF54 drug sensitive strain
Type: cell-based
testContext: Plasmodium falciparum, NF54, read-out: IC50 P. falc.
quantityMeasured: IC50 (nM)

# compound, assayedSystem, observedResult
measured = [
    ("CCN(CC)CCCC(C)Nc1ccnc2cc(Cl)ccc12 (stereo not shown) [Chloroquine, reference compound]", "Plasmodium falciparum, NF54 strain, IEF stage", 4),
]

###

Tested on: L6 rat skeletal myoblast cell line
assaySummary: Cytotoxicity towards L6 cells
Type: cell-based
testContext: L6 rat skeletal myoblast cell line; average of two independent assays; read-out: IC50 L6
pIC50: −log10 of the molar value.
The following compounds are shown together with reported pIC50 values.
quantityMeasured: pIC50

# smilesNotation, observedResult
data = [
    ("O=C(Cc1c[nH]c2ccccc12)NCCCNCCCCCCCCNCCCNC(=O)Cc1c[nH]c2ccccc12.O=C(O)C(F)(F)F.O=C(O)C(F)(F)F", 4.19),
    ("O=C(NCCCNCCCCCCCCNCCCNC(=O)C(=O)c1c[nH]c2cc(Br)ccc12)C(=O)c1c[nH]c2cc(Br)ccc12.O=C(O)C(F)(F)F.O=C(O)C(F)(F)F", 5.25),
    ("O=C(NCCCNCCCCCCCCNCCCNC(=O)C(=O)c1c[nH]c2ccccc12)C(=O)c1c[nH]c2ccccc12.O=C(O)C(F)(F)F.O=C(O)C(F)(F)F", 4.72),
]

###

This listing pairs compounds with measured IC50.
Test system: L6 rat skeletal myoblast cell line
assaySummary: Cytotoxicity towards L6 cells
Assay type: cell-based
testContext: L6 rat skeletal myoblast cell line; average of two independent assays; read-out: IC50 L6

# smilesNotation, IC50
data = [
    ("O=C(Cc1c[nH]c2ccccc12)NCCCNCCCCNCCCNC(=O)Cc1c[nH]c2ccccc12.O=C(O)C(F)(F)F.O=C(O)C(F)(F)F", "74 µM"),
    ("COc1ccc2c(C(=O)C(=O)NCCCN(CCCCCCCCCCCCN(CCCNC(=O)C(=O)c3c[nH]c4cc(OC)ccc34)C(=O)OC(C)(C)C)C(=O)OC(C)(C)C)c[nH]c2c1", "≥ 110 µM"),
    ("CC(C)(C)OC(=O)N(CCCCCCCCN(CCCNC(=O)Cc1c[nH]c2ccccc12)C(=O)OC(C)(C)C)CCCNC(=O)Cc1c[nH]c2ccccc12", "5 µM"),
    ("COc1ccc2c(C(=O)C(=O)NCCCN(CCCCCCCCN(CCCNC(=O)C(=O)c3c[nH]c4cc(OC)ccc34)C(=O)OC(C)(C)C)C(=O)OC(C)(C)C)c[nH]c2c1", "≥ 120 µM"),
    ("COc1ccc2[nH]cc(C(=O)C(=O)NCCCNCCCCCCCCNCCCNC(=O)C(=O)c3c[nH]c4ccc(OC)cc34)c2c1.O=C(O)C(F)(F)F.O=C(O)C(F)(F)F", "13 µM"),
]

###

Test system: Trypanosoma brucei rhodesiense, STIB 900 strain, trypomastigotes stage
assaySummary: In vitro anti-trypanosomal activity (growth inhibition)
Assay type: cell-based
testContext: Trypanosoma brucei; STIB 900 strain, trypomastigotes; average of two independent assays; read-out: IC50 T. b. rhod.
Reported IC50 values for the following compounds.
quantityMeasured: IC50

# compound, assayedSystem, observedResult
records = [
    ("COc1ccc2c(C(=O)C(=O)NCCCNCCCCCCCCCCCCNCCCNC(=O)C(=O)c3c[nH]c4cc(OC)ccc34)c[nH]c2c1.O=C(O)C(F)(F)F.O=C(O)C(F)(F)F [Compound 31]", "Trypanosoma brucei rhodesiense, STIB 900 strain, trypomastigotes stage", "0.18 µM"),
    ("COc1ccc2c(C(=O)C(=O)NCCCN(CCCCCCCCCCCCN(CCCNC(=O)C(=O)c3c[nH]c4cc(OC)ccc34)C(=O)OC(C)(C)C)C(=O)OC(C)(C)C)c[nH]c2c1 [Compound 23]", "Trypanosoma brucei rhodesiense, STIB 900 strain, trypomastigotes stage", "62 µM"),
    ("O=C(Cc1c[nH]c2ccccc12)NCCCNCCCCNCCCNC(=O)Cc1c[nH]c2ccccc12.O=C(O)C(F)(F)F.O=C(O)C(F)(F)F [Compound 36]", "Trypanosoma brucei rhodesiense, STIB 900 strain, trypomastigotes stage", "75 µM"),
]

Where do these numbers come from? They come from paper PMC4071569.
